# measured_target: UniProt:Q92918
# protocol_description: HPK1 Biochemical Assay (ADP-Glo luminescence; low ATP 10 μM or high ATP 200 μM)
# assay_context: Biochemical Potency (low ATP), 2 nM HPK1, 10 μM ATP
pIC50: −log10 of the molar value.
observable: pIC50

Please report the recorded pIC50 for Cc1ccc(Nc2cc3nc(-c4ccncc4)sc3cn2)nc1CN1CCCC1 [Example 35] .
> 7.00

* * *

Entries and their measured IC50 follow.
# measured_target: HPK1 (Homo sapiens)
# Sequence (Q92918 whole entry, species assumed): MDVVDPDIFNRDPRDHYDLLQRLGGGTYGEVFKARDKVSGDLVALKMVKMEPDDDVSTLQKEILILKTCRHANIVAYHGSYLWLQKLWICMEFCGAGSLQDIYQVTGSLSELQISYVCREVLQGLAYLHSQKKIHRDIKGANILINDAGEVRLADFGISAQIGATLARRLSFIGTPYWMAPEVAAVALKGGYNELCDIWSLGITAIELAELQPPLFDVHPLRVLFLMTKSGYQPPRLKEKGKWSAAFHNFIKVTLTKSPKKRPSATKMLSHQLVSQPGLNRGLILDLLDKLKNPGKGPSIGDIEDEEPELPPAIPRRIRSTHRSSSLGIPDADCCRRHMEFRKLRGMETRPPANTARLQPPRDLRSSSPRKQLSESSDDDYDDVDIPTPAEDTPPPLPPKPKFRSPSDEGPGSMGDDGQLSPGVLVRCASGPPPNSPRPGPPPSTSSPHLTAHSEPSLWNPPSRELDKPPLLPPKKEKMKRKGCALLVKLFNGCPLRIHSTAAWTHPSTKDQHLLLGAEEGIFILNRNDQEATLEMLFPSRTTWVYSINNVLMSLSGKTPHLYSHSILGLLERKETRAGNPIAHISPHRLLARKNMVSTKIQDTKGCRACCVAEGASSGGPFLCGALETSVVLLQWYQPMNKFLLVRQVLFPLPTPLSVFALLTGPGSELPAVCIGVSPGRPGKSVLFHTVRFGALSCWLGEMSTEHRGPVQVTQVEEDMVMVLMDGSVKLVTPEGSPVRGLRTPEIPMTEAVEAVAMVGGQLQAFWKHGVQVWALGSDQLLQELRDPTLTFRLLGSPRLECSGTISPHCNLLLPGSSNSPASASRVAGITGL
# protocol_description: HPK1 Biochemical Assay (ADP-Glo luminescence; low ATP 10 μM or high ATP 200 μM)
# assay_context: 2 nM HPK1, 10 μM ATP; read-out: Biochemical Potency (low ATP)

Below are worked cases with known answers.
{"molecule": "Cc1cccnc1-c1nc2cc(Nc3cccc(N4C[C@H](C)N(C)[C@@H](C)C4)n3)ncc2s1 [Example 102]", "IC50": "100 to 1000 nM"}
{"molecule": "Cc1ccc(Nc2cc3nc(-c4cnccn4)sc3cn2)nc1CN1CCCC1 [Example 56]", "IC50": "100 to 1000 nM"}
{"molecule": "Cc1cccnc1-c1nc2cc(Nc3ccc(C4CCOCC4)c(CN[C@@H]4CCOC4)n3)ncc2s1 [Example 215]", "IC50": "< 100 nM"}
{"molecule": "C[C@H]1CCCCN1c1nc2cc(Nc3ccc(C4CCOCC4)c(CN4CCCC4)n3)ncc2s1 [Example 236]", "IC50": "< 100 nM"}
{"molecule": "Cc1cccnc1-c1nc2cc(Nc3ccc(C)c(N4C[C@H](N)C[C@@H]4CO)n3)ncc2s1 [Example 67]", "IC50": "< 100 nM"}
{"molecule": "Cc1cccnc1-c1nc2cc(Nc3ccc(C4CCOCC4)c(N4C[C@@H]5C[C@H]4CN5C)n3)ncc2s1 [Example 247]", "IC50": "< 100 nM"}
{"molecule": "C[C@@H]1CCC(=O)N1c1nc2cc(Nc3ccc(C4CCOCC4)c(CN4CCCC4)n3)ncc2s1 [Example 207]", "IC50": "100 to 1000 nM"}
{"molecule": "CN(C)Cc1nc(Nc2cc3nc(NC(=O)c4c(F)cccc4F)sc3cn2)ccc1N1CCOCC1 [Example 282]", "IC50": "< 100 nM"}
{"molecule": "Cc1ccnn1-c1nc2cc(Nc3ccc(C4CCOC4)c(CN4CCCC4)n3)ncc2s1 (stereo not shown) [Example 256]", "IC50": "< 100 nM"}
{"molecule": "Fc1cccc(F)c1-c1nc2cc(Nc3ccc(N4CCC(F)(F)C4)c(CN4CCCC4)n3)ncc2s1 [Example 11]", "IC50": "100 to 1000 nM"}

Please report the recorded IC50 for Cc1cc(Nc2cc3nc(-c4c(F)cccc4F)sc3cn2)nc(O[C@H]2CCNC2)c1 [Example 175] .
< 100 nM

Please report the recorded IC50 for Cc1cc(Nc2cc3nc(N4CCOCC4)sc3cn2)nc(O[C@H]2CCNC2)c1 [Example 191] .
< 100 nM

Please report the recorded IC50 for c1cc(Nc2cc3nc(-n4cccn4)sc3cn2)nc(N2C[C@@H]3C[C@H]2CN3)c1 [Example 82] .
< 100 nM

Please report the recorded IC50 for Cc1cccnc1-c1nc2cc(Nc3cccc(N4CCN5CCC[C@@H]5C4)n3)ncc2s1 [Example 114] .
< 100 nM

Please report the recorded IC50 for Cc1cccnc1-c1nc2cc(Nc3ccc(C4CCOCC4)c(CN4CC[C@H](F)C4)n3)ncc2s1 [Example 214] .
< 100 nM

Please report the recorded IC50 for CN1C[C@@H]2C[C@H]1CN2c1nccc(Nc2cc3nc(-c4ccnc(N5CC[C@H](O)C5)c4)sc3cn2)n1 [Example 266] .
< 100 nM

Reference source: patent US12649751B2
